studyTarget: Calcium/calmodulin-dependent protein kinase type IV (Homo sapiens) (UniProt Q16566)
Sequence (whole entry): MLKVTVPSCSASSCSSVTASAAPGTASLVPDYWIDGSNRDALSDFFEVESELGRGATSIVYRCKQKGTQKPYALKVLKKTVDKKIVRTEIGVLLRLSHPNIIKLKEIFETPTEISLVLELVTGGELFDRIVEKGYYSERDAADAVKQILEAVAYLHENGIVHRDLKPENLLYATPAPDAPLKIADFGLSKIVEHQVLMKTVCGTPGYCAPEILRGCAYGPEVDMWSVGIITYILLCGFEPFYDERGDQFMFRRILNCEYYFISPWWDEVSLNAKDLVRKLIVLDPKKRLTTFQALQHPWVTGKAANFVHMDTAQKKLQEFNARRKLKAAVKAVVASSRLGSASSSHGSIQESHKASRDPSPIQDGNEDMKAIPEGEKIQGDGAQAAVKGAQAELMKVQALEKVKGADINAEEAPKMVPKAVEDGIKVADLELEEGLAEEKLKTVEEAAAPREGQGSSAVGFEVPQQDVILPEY

>  <smilesStructure>
Nc1nc(Nc2ccc(S(N)(=O)=O)cc2)nn1C(=S)Nc1c(F)cccc1F

>  <studyTarget>
Calcium/calmodulin-dependent protein kinase type IV (Homo sapiens) (UniProt Q16566)

>  <valueUnits>
°C

>  <ΔTm>
-0.2

$$$$
>  <smilesStructure>
C[C@@H](N)[C@H]1CC[C@H](C(=O)Nc2ccncc2)CC1

>  <studyTarget>
Calcium/calmodulin-dependent protein kinase type IV (Homo sapiens) (UniProt Q16566)

>  <valueUnits>
°C

>  <ΔTm>
-0.1

$$$$
>  <smilesStructure>
N#CC(C#N)=Cc1ccc(O)c(O)c1

>  <studyTarget>
Calcium/calmodulin-dependent protein kinase type IV (Homo sapiens) (UniProt Q16566)

>  <valueUnits>
°C

>  <ΔTm>
0.4

$$$$
>  <smilesStructure>
C=CNC#N

>  <studyTarget>
Calcium/calmodulin-dependent protein kinase type IV (Homo sapiens) (UniProt Q16566)

>  <valueUnits>
°C

>  <ΔTm>
0.9

$$$$
>  <smilesStructure>
COc1cc2c(cc1OC)-c1n[nH]c(Nc3cccc(F)c3)c1C2

>  <studyTarget>
Calcium/calmodulin-dependent protein kinase type IV (Homo sapiens) (UniProt Q16566)

>  <valueUnits>
°C

>  <ΔTm>
0.5

$$$$
>  <smilesStructure>
CC(C)(C)n1nc(-c2ccc(Cl)cc2)c2c(N)ncnc21

>  <studyTarget>
Calcium/calmodulin-dependent protein kinase type IV (Homo sapiens) (UniProt Q16566)

>  <valueUnits>
°C

>  <ΔTm>
0

$$$$
>  <smilesStructure>
O=C1C(Cl)=C(N2C(=O)CCC2=O)C(=O)c2ccccc21

>  <studyTarget>
Calcium/calmodulin-dependent protein kinase type IV (Homo sapiens) (UniProt Q16566)

>  <valueUnits>
°C

>  <ΔTm>
1.2

$$$$
>  <smilesStructure>
CN(C)C[C@@H]1CCn2cc(c3ccccc32)C2=C(C(=O)NC2=O)c2cn(c3ccccc23)CCO1

>  <studyTarget>
Calcium/calmodulin-dependent protein kinase type IV (Homo sapiens) (UniProt Q16566)

>  <valueUnits>
°C

>  <ΔTm>
2.9

$$$$
>  <smilesStructure>
O=C1Cc2c([nH]c3ccc([N+](=O)[O-])cc23)-c2ccccc2N1

>  <studyTarget>
Calcium/calmodulin-dependent protein kinase type IV (Homo sapiens) (UniProt Q16566)

>  <valueUnits>
°C

>  <ΔTm>
0.8

$$$$
>  <smilesStructure>
COc1cccc(-c2cc(=O)c3ccccc3o2)c1N

>  <studyTarget>
Calcium/calmodulin-dependent protein kinase type IV (Homo sapiens) (UniProt Q16566)

>  <valueUnits>
°C

>  <ΔTm>
-0.1

$$$$
>  <smilesStructure>
CCOc1cc(/C=C(\C#N)C(N)=O)cc(CSc2ccccc2)c1O

>  <studyTarget>
Calcium/calmodulin-dependent protein kinase type IV (Homo sapiens) (UniProt Q16566)

>  <valueUnits>
°C

>  <ΔTm>
0.1

$$$$
>  <smilesStructure>
Nc1cc2ncnc(Nc3cccc(Br)c3)c2cc1N

>  <studyTarget>
Calcium/calmodulin-dependent protein kinase type IV (Homo sapiens) (UniProt Q16566)

>  <valueUnits>
°C

>  <ΔTm>
0.4

$$$$
>  <smilesStructure>
CC(C)[C@H](CO)Nc1nc(Nc2cc(N)cc(Cl)c2)c2ncn(C(C)C)c2n1

>  <studyTarget>
Calcium/calmodulin-dependent protein kinase type IV (Homo sapiens) (UniProt Q16566)

>  <valueUnits>
°C

>  <ΔTm>
4.2

$$$$
>  <smilesStructure>
Nc1cccc(-c2cc3c(Oc4cccc(O)c4)ncnc3[nH]2)c1

>  <studyTarget>
Calcium/calmodulin-dependent protein kinase type IV (Homo sapiens) (UniProt Q16566)

>  <valueUnits>
°C

>  <ΔTm>
0.2

$$$$
>  <smilesStructure>
O=c1c(-c2ccc(F)cc2)c(-c2ccncc2)[nH]n1-c1ccc(Cl)cc1

>  <studyTarget>
Calcium/calmodulin-dependent protein kinase type IV (Homo sapiens) (UniProt Q16566)

>  <valueUnits>
°C

>  <ΔTm>
0.4

$$$$
>  <smilesStructure>
Cc1nc(Nc2ncc(C(=O)Nc3c(C)cccc3Cl)s2)cc(N2CCN(CCO)CC2)n1

>  <studyTarget>
Calcium/calmodulin-dependent protein kinase type IV (Homo sapiens) (UniProt Q16566)

>  <valueUnits>
°C

>  <ΔTm>
0.2

$$$$
>  <smilesStructure>
O=C1Nc2ccccc2/C1=C\c1ccc[nH]1

>  <studyTarget>
Calcium/calmodulin-dependent protein kinase type IV (Homo sapiens) (UniProt Q16566)

>  <valueUnits>
°C

>  <ΔTm>
0.6

$$$$
>  <smilesStructure>
CC(C)n1cnc2/c(=N/c3cccc(Cl)c3)nc(NCCO)[nH]c21

>  <studyTarget>
Calcium/calmodulin-dependent protein kinase type IV (Homo sapiens) (UniProt Q16566)

>  <valueUnits>
°C

>  <ΔTm>
1.2

$$$$
>  <smilesStructure>
OC[C@H]1O[C@@H](n2cnc3cc(Cl)c(Cl)cc32)[C@H](O)[C@@H]1O

>  <studyTarget>
Calcium/calmodulin-dependent protein kinase type IV (Homo sapiens) (UniProt Q16566)

>  <valueUnits>
°C

>  <ΔTm>
0.2

$$$$
>  <smilesStructure>
O=C1Nc2ccc(S(=O)(=O)O)cc2/C1=C1/Nc2ccccc2/C1=N\O

>  <studyTarget>
Calcium/calmodulin-dependent protein kinase type IV (Homo sapiens) (UniProt Q16566)

>  <valueUnits>
°C

>  <ΔTm>
1.3

$$$$
>  <smilesStructure>
COc1ccc2c(c1)/C(=C/c1cnc[nH]1)C(=O)N2

>  <studyTarget>
Calcium/calmodulin-dependent protein kinase type IV (Homo sapiens) (UniProt Q16566)

>  <valueUnits>
°C

>  <ΔTm>
1.5

$$$$
>  <smilesStructure>
O=C1Nc2ccccc2/C1=C/c1cnc[nH]1

>  <studyTarget>
Calcium/calmodulin-dependent protein kinase type IV (Homo sapiens) (UniProt Q16566)

>  <valueUnits>
°C

>  <ΔTm>
0.7

$$$$

###

studyTarget: UniProt:P49759
Sequence (P49759 whole entry, looked up): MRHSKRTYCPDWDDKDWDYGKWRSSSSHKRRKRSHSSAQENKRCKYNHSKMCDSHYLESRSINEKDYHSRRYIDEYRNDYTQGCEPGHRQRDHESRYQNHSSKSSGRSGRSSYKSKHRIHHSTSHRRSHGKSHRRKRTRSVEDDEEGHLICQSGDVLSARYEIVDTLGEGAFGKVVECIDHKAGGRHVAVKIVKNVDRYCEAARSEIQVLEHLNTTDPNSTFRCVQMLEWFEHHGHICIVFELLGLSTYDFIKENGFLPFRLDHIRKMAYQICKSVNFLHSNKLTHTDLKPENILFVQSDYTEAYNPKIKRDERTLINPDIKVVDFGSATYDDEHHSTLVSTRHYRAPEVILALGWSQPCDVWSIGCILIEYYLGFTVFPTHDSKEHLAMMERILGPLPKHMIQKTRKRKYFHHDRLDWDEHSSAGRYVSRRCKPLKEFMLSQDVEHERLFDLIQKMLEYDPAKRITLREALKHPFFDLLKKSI
outcomeMeasure: ΔTm (°C)

>  <compound>
O=c1c(-c2ccc(O)cc2)coc2cc(O)cc(O)c12

>  <observed>
1.1

$$$$
>  <compound>
O=C(Nc1cccc(Nc2cc(Nc3cccc(C(F)(F)F)c3)ncn2)c1)C1CC1

>  <observed>
1.9

$$$$
>  <compound>
CC(C)(C)c1nc2c3ccc(F)cc3c3c(=O)[nH]ccc3c2[nH]1

>  <observed>
4.3

$$$$
>  <compound>
O=C1Nc2ccccc2/C1=C/c1cnc[nH]1

>  <observed>
3.3

$$$$
>  <compound>
CCCNC(=O)Nc1ccc(Oc2ncnc3cc(OC)c(OC)cc23)cc1Cl [KRN-633]

>  <observed>
-1.7

$$$$
>  <compound>
O=C1Nc2ccc(S(=O)(=O)O)cc2/C1=C1/Nc2ccccc2/C1=N\O

>  <observed>
3.9

$$$$
>  <compound>
CN1CCC(Nc2ncc3ncnc(Nc4ccc(F)c(Cl)c4)c3n2)CC1 [FALNIDAMOL]

>  <observed>
0.5

$$$$
>  <compound>
O=c1c2ccccc2[nH]c(=S)n1CCN1CCC(=C(c2ccc(F)cc2)c2ccc(F)cc2)CC1 [DIACYLGLYCEROL KINASE INHIBITOR II]

>  <observed>
0.3

$$$$
>  <compound>
CCOc1cc(/C=C(\C#N)C(N)=O)cc(CSc2ccccc2)c1O

>  <observed>
0

$$$$
>  <compound>
Oc1cc(O)cc(/C=C/c2ccc(O)c(O)c2)c1 [PICEATANNOL]

>  <observed>
0.9

$$$$
>  <compound>
COc1ccc(Cl)cc1NC(=O)Nc1cc(C)nc2ccccc12

>  <observed>
0.5

$$$$
>  <compound>
Cc1cc2ncc(-c3ccccc3)nc2cc1C

>  <observed>
1.4

$$$$
>  <compound>
Brc1c(Br)c(Br)c2[nH]nnc2c1Br [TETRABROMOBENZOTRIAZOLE]

>  <observed>
3.6

$$$$
>  <compound>
O=c1ccc2ccc(O)c(O)c2o1 [DAPHNETIN]

>  <observed>
0

$$$$
>  <compound>
CSc1nc(-c2ccc(F)cc2)c(-c2ccnc(NC(C)c3ccccc3)c2)[nH]1 (racemic)

>  <observed>
0

$$$$
>  <compound>
O=C(O)Cc1ccc(O)c([N+](=O)[O-])c1

>  <observed>
-0.6

$$$$
>  <compound>
COc1cc2ncnc(Nc3ccc(NC(=O)c4ccccc4)cc3)c2cc1OC [ANILINOQUINAZOLINE1]

>  <observed>
1

$$$$
>  <compound>
O=C1C=C2C(=Nc3c2c2c(c4c3=NC3=C4CCC=C3)C=NC=2)CC1

>  <observed>
3.1

$$$$
>  <compound>
COc1ccc(CNC(=O)Nc2ncc([N+](=O)[O-])s2)cc1

>  <observed>
0.7

$$$$
>  <compound>
O=C1NC(=O)C(c2cn(CCCn3ccnc3)c3ccccc23)=C1Nc1ccccc1

>  <observed>
5.8

$$$$
>  <compound>
C#Cc1cccc(Nc2ncnc3cc(OCCOC)c(OCCOC)cc23)c1

>  <observed>
-0.5

$$$$
